Listed next: entries and their corresponding TGI.
# Tested on: HCC-2998 colon
# Experiment Description: NCI tumour cell line growth inhibition, 48 h
Give the number; µM is assumed, so skip it.

Molecule | Output Unit | TGI
CC(=O)OC1CC2C(C)(C)C(=O)C=C[C@]2(C)C2CCC3(C)C(c4ccoc4)C(=O)[C@H]4O[C@]43[C@]12C (stereo not given in full) | µM | 32.2

Kindly consider the entry below.
Request the reported TGI associated with C=C1C(=O)OC2CC1C(O)C/C(C)=C/CC/C(C)=C/C(O)CC2C (stereo not given)
4.21

---

Listed next: entries and their corresponding TGI.
# System: HOP-92 NSCLC
# Experiment Description: NCI tumour cell line growth inhibition, 48 h

Take a look at these entries with their results.
Molecule | TGI
Cc1c(C(=O)N2CCN(c3ccc([N+](=O)[O-])cc3)CC2)[n+](=O)c2cc(Cl)c(Cl)cc2n1[O-] | 34.4 µM
CCCCCCCCCCCCCCCCCCNc1ccn(C2OC(COP(=O)(O)OCC3CCC(n4cnc5c(=O)[nH]cnc54)O3)C(O)C2O)c(=O)n1 (centres undefined) | > 100 µM
O=[N+]([O-])c1ccc(N/N=C/c2c(O)ccc3ccccc23)nc1 | 99.4 µM

Now turn to the next molecule.
Value lookup for TGI; key = NCCCn1c2ccccc2c2c3c(c4c(c21)CCC(O)CC4)C(=O)NC3=O (centres undefined)
12.9 µM

---

# Tested on: COLO 205 colon
# Experiment Description: NCI tumour cell line growth inhibition, 48 h
We begin with a simple list: items and their reported TGI.

Compound | Tested System | TGI
O=c1[nH]c(=O)n(C2OC(CO)C(O)C2O)c2c1CCCC2 (stereo not drawn) | COLO 205 colon | > 100 µM
Cc1cc(C)c(C[N+](C)(C)C)c(C)c1C | COLO 205 colon | 1.85 µM
COc1ccc(C(N)=O)cc1N=NN(C)C | COLO 205 colon | > 100 µM

// moving on: another record for TGI
I'd like to know its TGI. The compound in question is COC(=O)/C=C(\C)C(=O)N(C)c1ccccc1I
> 100 µM

---

# Test system: EKVX NSCLC
# Experiment Description: NCI tumour cell line growth inhibition, 48 h
Parameter TGI: see the listing below.

Compound | Tested System | Observed
Cn1ncc2c(N)nc(N3CCCCC3)nc21 | EKVX NSCLC | > 100 µM
ClC(Cl)(Cl)C1=N[C@H]2[C@H](Br)[C@@H]3O[C@@H](c4ccccc4)[C@H](c4ccccc4)O[C@@H]3[C@H]2O1 | EKVX NSCLC | 50.3 µM
CCC1C(c2cccc(OC)c2O)c2cc3c(cc2OC1N1CCCC1)OCO3 (centres undefined) | EKVX NSCLC | > 100 µM
COC(=O)c1sc(C(=O)OC)c2c1CSC2 | EKVX NSCLC | > 100 µM
CCCCc1c(C(=O)OC(C)(C)C)cc(C#Cc2cc(C(=O)OC(C)(C)C)c(CCCC)c(C(=O)OC(C)(C)C)c2)cc1C(=O)OC(C)(C)C | EKVX NSCLC | > 100 µM

What reported TGI corresponds to CN(C)c1ccc(/C=C2\N=C(NN)NC2=O)cc1 on EKVX NSCLC?
> 100 µM

Repeat for the following compound: CCOC(=O)c1cc(C(=O)c2ccccc2)n2nc(-c3ccc(Cl)cc3)ccc12
42.6 µM

Lookup CC(=O)O[C@H]1CC[C@@]2(C)C(=CC[C@H]3C4=CC=C(C(C)=O)[C@@]4(C)CCC32)C1 (some centres undefined)
> 100 µM

And then O=C1C[C@@H]2C(COC(=O)c3ccccc3)N(OCc3ccccc3)C[C@@H]2O1 (some centres undefined) , what is it?
> 100 µM
